So I've got a bunch of molecules here, and I need their melting point values.

Take a look at these entries with their results.
- molecule: "Cl.Cn1c2c(c3cc(S(=O)(=O)c4cc(Cl)cc(Cl)c4)ccc31)C1CCC(C2)N1 (centres unmarked)"
  endpoint-label: "melting point"
  endpoint-value: "190 to 195 °C"
- molecule: "Cl.Cn1c2c(c3ccc(S(=O)(=O)c4ccccc4)cc31)C1CCC(C2)N1 (centres unmarked)"
  endpoint-label: "melting point"
  endpoint-value: "252 to 256 °C"
- molecule: "CC(C)n1c2c(c3cc(S(=O)(=O)c4ccccc4)ccc31)C1CCC(C2)N1.Cl (centres unmarked)"
  endpoint-label: "melting point"
  endpoint-value: "260 to 265 °C"
- molecule: "Cl.Cn1c2c(c3cc(S(=O)(=O)c4ccccc4)cc(OCc4ccccc4)c31)C1CCC(C2)N1 (centres unmarked)"
  endpoint-label: "melting point"
  endpoint-value: "178 to 180 °C"
- molecule: "CN1C2CCC1c1c(n(C)c3ccc(S(=O)(=O)c4ccsc4)cc13)C2.Cl (centres unmarked)"
  endpoint-label: "melting point"
  endpoint-value: "238 to 240 °C"

Would you mind listing melting point for each of the following molecules?
1. Cc1cc(S(=O)(=O)c2ccccc2)cc2c3c(n(C)c12)CC1CCC3N1.Cl (centres unmarked)
2. Cc1cc(S(=O)(=O)c2cccc(F)c2)cc2c3c(n(C)c12)CC1CCC3N1.Cl (centres unmarked)
3. Cl.Cn1c2c(c3cc(S(=O)(=O)c4ccc(F)cc4)ccc31)C1CCC(C2)N1 (centres unmarked)
4. Cc1cc(S(=O)(=O)n2ccc3ccccc32)cc2c3c(n(C)c12)CC1CCC3N1.Cl (centres unmarked)
5. Cl.Cn1c2c(c3cc(S(=O)(=O)c4ccccn4)ccc31)C1CCC(C2)N1 (centres unmarked)
6. Cl.Cn1c2c(c3cc(S(=O)(=O)c4ccc(C(F)(F)F)cc4)ccc31)C1CCC(C2)N1 (centres unmarked)
7. COc1ccc(S(=O)(=O)c2ccc3c(c2)c2c(n3C)CC3CCC2N3)cc1.Cl (centres unmarked)

Result:
1. 244 to 248 °C
2. 254 to 256 °C
3. 210 to 214 °C
4. 225 to 228 °C
5. 222 to 225 °C
6. 200 to 205 °C
7. 210 to 212 °C

Would you mind listing melting point for each of the following molecules?
1. Cl.Cn1c2c(c3cc(S(=O)(=O)n4cc(Cl)c5ccccc54)ccc31)C1CCC(C2)N1 (centres unmarked)
2. Cl.Cn1c2c(c3cc(S(=O)(=O)c4cccnc4)ccc31)C1CCC(C2)N1 (centres unmarked)
3. Cc1ccccc1S(=O)(=O)c1ccc2c(c1)c1c(n2C)CC2CCC1N2.Cl (centres unmarked)
4. Cc1cc(S(=O)(=O)c2ccc(N)cc2)cc2c3c(n(C)c12)CC1CCC3N1.Cl (centres unmarked)
5. Cc1cccc(S(=O)(=O)c2ccc3c(c2)c2c(n3C)CC3CCC2N3)c1.Cl (centres unmarked)

Result:
["204 to 206 °C", "226 to 228 °C", "186 to 188 °C", "244 to 246 °C", "194 to 196 °C"]

---

Structures can show the parent of a compound that is named as a salt.
endpoint-label: melting point

Take a look at these entries with their results.
- molecule: "Cl.Cn1c2c(c3cc(S(=O)(=O)c4ccc(Cl)cc4)ccc31)C1CCC(C2)N1 (centres unmarked) [Example 51]"
  endpoint-label: "melting point"
  endpoint-value: "310 to 320 °C"
- molecule: "Cc1cn(S(=O)(=O)c2ccc3c(c2)c2c(n3C)CC3CCC2N3)c2ccccc12.Cl (centres unmarked) [Example 68]"
  endpoint-label: "melting point"
  endpoint-value: "212 to 215 °C"
- molecule: "COc1ccc2c(ccn2S(=O)(=O)c2ccc3c(c2)c2c(n3C)CC3CCC2N3)c1.Cl (centres unmarked) [Example 66]"
  endpoint-label: "melting point"
  endpoint-value: "206 to 209 °C"
- molecule: "Cc1cccc(S(=O)(=O)c2cc(C)c3c(c2)c2c(n3C)CC3CCC2N3)c1.Cl (centres unmarked) [Example 74]"
  endpoint-label: "melting point"
  endpoint-value: "228 to 230 °C"
- molecule: "Cl.Cn1c2c(c3cc(S(=O)(=O)c4cccc(OC(F)(F)F)c4)ccc31)C1CCC(C2)N1 (centres unmarked) [Example 39]"
  endpoint-label: "melting point"
  endpoint-value: "193 to 196 °C"
- molecule: "Cl.Cn1c2c(c3cc(S(=O)(=O)c4cccc(OC(F)F)c4)ccc31)C1CCC(C2)N1 (centres unmarked) [Example 40]"
  endpoint-label: "melting point"
  endpoint-value: "186 to 190 °C (dec.)"
- molecule: "CC(C)Oc1cc(S(=O)(=O)c2ccccc2)cc2c3c(n(C)c12)CC1CCC3N1.Cl (centres unmarked) [Example 85]"
  endpoint-label: "melting point"
  endpoint-value: "187 to 189 °C"
- molecule: "Cl.Cn1c2c(c3cc(S(=O)(=O)c4cccc(-c5ccccc5)c4)ccc31)C1CCC(C2)N1 (centres unmarked) [Example 57]"
  endpoint-label: "melting point"
  endpoint-value: "230 to 235 °C (dec.)"

Would you mind listing melting point for each of the following molecules?
1. Cc1cc(S(=O)(=O)c2cncnc2)cc2c3c(n(C)c12)CC1CCC3N1.Cl (centres unmarked) [Example 78]
2. Cl.Cn1c2c(c3cc(S(=O)(=O)c4cncc(Cl)c4)ccc31)C1CCC(C2)N1 (centres unmarked) [Example 58]
3. Cc1cc(S(=O)(=O)c2cccc(Cl)c2)cc2c3c(n(C)c12)CC1CCC3N1.Cl (centres unmarked) [Example 73]
4. Cl.Cn1c2c(c3cc(S(=O)(=O)c4ccc(C#N)cc4)ccc31)C1CCC(C2)N1 (centres unmarked) [Example 30]
5. Cl.O=S(=O)(c1ccccc1)c1ccc2c(c1)c1c(n2CCO)CC2CCC1N2 (centres unmarked) [Example 89]

Result:
["226 to 228 °C", "202 to 205 °C (dec.)", "227 to 229 °C", "216 to 218 °C", "185 to 190 °C"]

Would you mind listing melting point for each of the following molecules?
1. Cl.Cn1c2c(c3cc(S(=O)(=O)c4cccc(N)c4)ccc31)C1CCC(C2)N1 (centres unmarked) [Example 44]
2. Cl.Cn1c2c(c3cc(S(=O)(=O)n4ccc5cc(F)ccc54)ccc31)C1CCC(C2)N1 (centres unmarked) [Example 63]
3. CCOc1cc(S(=O)(=O)c2ccccc2)cc2c3c(n(C)c12)CC1CCC3N1.Cl (centres unmarked) [Example 84]
4. Cn1c2c(c3cc(S(=O)(=O)c4ccc(CN)cc4)ccc31)C1CCC(C2)N1 (centres unmarked) (as salt: hydrochloride) [Example 33, dihydrochloride]
5. Cc1cc(S(=O)(=O)c2cccc(OC(F)(F)F)c2)cc2c3c(n(C)c12)CC1CCC3N1.Cl (centres unmarked) [Example 76]
6. CC(C)Nc1cccc(S(=O)(=O)c2ccc3c(c2)c2c(n3C)CC3CCC2N3)c1.Cl (centres unmarked) [Example 47]

Result:
["220 to 222 °C", "218 to 220 °C", "182 to 184 °C", "237 to 239 °C", "220 to 222 °C", "208 to 212 °C (dec.)"]

Would you mind listing melting point for each of the following molecules?
1. COc1cccc(S(=O)(=O)c2ccc3c(c2)c2c(n3C)CC3CCC2N3)c1.Cl (centres unmarked) [Example 41]
2. Cl.Cn1c2c(c3cc(S(=O)(=O)c4ccc5ccccc5c4)ccc31)C1CCC(C2)N1 (centres unmarked) [Example 50]
3. COc1cc(S(=O)(=O)c2ccccc2)cc2c3c(n(C)c12)CC1CCC3N1.Cl (centres unmarked) [Example 83]

Result:
186 to 190 °C
220 to 222 °C
175 to 177 °C

Would you mind listing melting point for each of the following molecules?
1. Cl.Cn1c2c(c3cc(S(=O)(=O)c4ccsc4)ccc31)C1CCC(C2)N1 (centres unmarked) [Example 56]
2. Cl.O=S(=O)(c1ccccc1)c1ccc2c(c1)c1c(n2-c2ccccc2)CC2CCC1N2 (centres unmarked) [Example 88]
3. Cl.Cn1c2c(c3cc(S(=O)(=O)c4cccc(NC5CCCC5)c4)ccc31)C1CCC(C2)N1 (centres unmarked) [Example 48]

Result:
1. 208 to 212 °C (dec.)
2. 195 to 200 °C
3. 211 to 217 °C

Would you mind listing melting point for each of the following molecules?
1. Cl.Cn1c2c(c3cc(S(=O)(=O)c4cncc(F)c4)ccc31)C1CCC(C2)N1 (centres unmarked) [Example 59]
2. CN(C)Cc1ccc(S(=O)(=O)c2ccc3c(c2)c2c(n3C)CC3CCC2N3)cc1 (centres unmarked) (as salt: hydrochloride) [Example 34, dihydrochloride]
3. Cl.Cn1c2c(c3cc(S(=O)(=O)c4cccc(F)c4)ccc31)C1CCC(C2)N1 (centres unmarked) [Example 35]
4. CCn1c2c(c3cc(S(=O)(=O)c4ccccc4)ccc31)C1CCC(C2)N1.Cl (centres unmarked) [Example 90]

Result:
1. 212 to 215 °C
2. 244 to 246 °C
3. 240 to 245 °C
4. 200 to 204 °C (dec.)

Would you mind listing melting point for each of the following molecules?
1. Cl.Cn1c2c(c3cc(S(=O)(=O)c4ccccc4)cc(Cl)c31)C1CCC(C2)N1 (centres unmarked) [Example 82]
2. Cl.Cn1c2c(c3cc(S(=O)(=O)c4ccc(N)cc4)ccc31)C1CCC(C2)N1 (centres unmarked) [Example 53]
3. Cl.Cn1c2c(c3cc(S(=O)(=O)c4cccc(C#N)c4)ccc31)C1CCC(C2)N1 (centres unmarked) [Example 43]

Result:
1. 258 to 264 °C (dec.)
2. 220 to 225 °C
3. 211 to 214 °C
